Test system: Escherichia coli TOP10;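 further: peptides expressed intracellularly from a pBAD plasmid library in pooled LB shake-flask culture, induced with 0.3% L-arabinose, DNA abundance read by NGS, three biological replicates, DESeq2 with apeglm shrinkage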
test protocol: shrunken log2 fold change of peptide-encoding DNA abundance (4.5 h post-induction vs induction); higher = less antimicrobial activity (less host growth inhibition)
protocol conditions: time post-induction: 4.5 h; library: site-saturation at positions 5, 18, 19, 20
parameter: shrunken log2 fold change
Output spec: single numeric token, no unit.

Record excerpt, results attached:
> print(dat)
                  sequence                  parameter  readout.number
1  RRIRRRPPRLPRPRPRPSHIPRP  shrunken log2 fold change         -0.0708
2  RRIRKRPPRLPRPRPRPILCPRP  shrunken log2 fold change         0.00753
3  RRIRSRPPRLPRPRPRPVVTPRP  shrunken log2 fold change           0.021
4  RRIRKRPPRLPRPRPRPGHEPRP  shrunken log2 fold change           0.127
5  RRIRWRPPRLPRPRPRPHDDPRP  shrunken log2 fold change          0.0487

Query block: Entry RRIRFRPPRLPRPRPRPAQSPRP has what shrunken log2 fold change?
Result block: 0.0902

Query block: Name the reported shrunken log2 fold change value associated with the sequence RRIRRRPPRLPRPRPRPQIGPRP
Result block: 0.164

Query block: Request the reported shrunken log2 fold change associated with RRIRARPPRLPRPRPRPTTPPRP
Result block: 0.605
